Recorded values, source the supplement of paper PMC11451515.

system: NOMO1; experiment: cell viability relative to DMSO control; higher = less cytotoxic; details: HPLM + 10% dialyzed FBS; 48 h; 5.12 µM
The entries below are paired with their reported cell viability.
I only need the number, in %, no unit after it.

{"compound": "CC#CCn1c(N2CCC[C@@H](N)C2)nc2c1c(=O)n(Cc1nc(C)c3ccccc3n1)c(=O)n2C", "test target": "NOMO1", "experimental value": 98.3}
{"compound": "CCCCN(CCCC)CC(O)c1cc(Cl)cc2c1-c1ccc(Cl)cc1/C2=C/c1ccc(Cl)cc1 (stereo not given)", "test target": "NOMO1", "experimental value": 82.6}
{"compound": "COC(=O)C\\1=C(C)\\N\\C(=C(/C1C2=CC=CC3=NON=C23)C(=O)OC(C)C)C (stereo not given)", "test target": "NOMO1", "experimental value": 88.8}
{"compound": "CNCC[C@H](Oc1cccc2ccccc12)c1cccs1", "test target": "NOMO1", "experimental value": 90.8}

Turning now to a further compound:
May I ask what cell viability has been recorded for CC12CC3CC(C)(C1)CC(N)(C3)C2 ?
107
